assay: probe aDKK1 binding to arrayed compounds – biochemical, biotinylated probe, 635/667 nm fluorescence, primary screen (AID 1099); conditions: small-molecule microarray, higher = more signal;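 note: score merges 667nm spot fluorescence with signal to noise across triplicate slides; reference of the scale not given here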
Reported Metric: composite z-score
Reply with just the number.

Molecule	composite z-score
O=C1O[C@@H](c2ccccc2)[C@@H](c2ccccc2)N2[C@@H](c3ccc(OCCO)cc3)[C@]3(C(=O)Nc4ccc(C#CC5(O)CCCCCC5)cc43)[C@@H](C(=O)O)[C@H]12	0.623
CC(C)NC(=O)[C@@]1(c2ccc([N+](=O)[O-])cc2)CC(=O)N(CC23CC4CC(CC(C4)C2)C3)[C@@H]1c1ccc(CO)cc1	0.998
NCCCCCCNC(=O)[C@@H]1C[C@@H]2C(=O)N3CCC[C@H]3C(=O)N2[C@@H]1c1cccc(OCCO)c1	0.0549
COC(=O)[C@]1(Cc2ccccc2)N=C(c2ccc(OCCCO)cc2)O[C@@H]1c1ccccc1CN=[N+]=[N-]	0.266

Prompt: Respond only with composite z-score recorded for CCCN1C(=O)[C@]2(CCC(=O)OC(C)(C)C)N=C(c3ccc(OCCCO)cc3)O[C@@H]2c2ccccc21
Completion: 0.173

Prompt: Respond only with composite z-score recorded for CCOC(=O)c1cn(C[C@H](Cc2ccccc2)NC(=O)N[C@H](CO)CCc2oc(C(C)=O)c(C(=O)OC)c2C(=O)OC)nn1
Completion: 0.0549

Prompt: Respond only with composite z-score recorded for CCCC=C(CCC)[C@@H](NC(=O)OCC(C)C)c1ccc(C(=O)OC)cc1
Completion: -0.315

Prompt: Respond only with composite z-score recorded for C=CC[C@]1(C(=O)NCC(O)CO)COC(c2ccc(OCCCO)cc2)=N1 (some centres undefined)
Completion: 0.787

Prompt: Respond only with composite z-score recorded for COc1ccc([Si](C)(C)[C@H]2[C@H](CCO)O[C@@]3(C(=O)N(Cc4ccc(NC(=O)[C@H](C)O)cc4)c4ccccc43)[C@@H]2C)cc1
Completion: 0.162

Prompt: Respond only with composite z-score recorded for COc1cc(C(O)C2C=CC3C(=O)N(c4ccccc4)C(=O)C3N2Nc2ccccc2)cc(OC)c1OC (centres undefined)
Completion: 1.03

Prompt: Respond only with composite z-score recorded for CC(C)C(O)C1C=CC2C(=O)NC(=O)C2N1Nc1ccccn1 (centres undefined)
Completion: 0.886

Prompt: Respond only with composite z-score recorded for C=CCOC(=O)[C@@H]1[C@H]2C(=O)O[C@H](c3ccccc3)[C@H](c3ccccc3)N2[C@H](c2ccc(OCCOC(=O)[C@H]3C[C@H]4C(=O)N5CCC[C@H]5C(=O)N4[C@H]3c3cccc(OCCO)c3)cc2)[C@@]12C(=O)Nc1ccc(I)cc12
Completion: -0.0777

Prompt: Respond only with composite z-score recorded for Cc1ccccc1C(O)C1C=CC2C(=O)N(c3ccccc3)C(=O)C2N1Nc1ccccc1 (centres undefined)
Completion: 1.01

Prompt: Respond only with composite z-score recorded for COCCOC(=O)N1C(=O)[C@@]2(c3ccccc31)[C@H](c1ccc(O)cc1)N1[C@H](c3ccccc3)[C@H](c3ccccc3)OC(=O)[C@H]1[C@@H]2C(=O)N1CCCCCCC1
Completion: 2.94

Prompt: Respond only with composite z-score recorded for N#Cc1ccc(NN2C(C(O)C3CC=CCC3)C=CC3C(=O)N(c4ccccc4)C(=O)C32)cc1 (centres undefined)
Completion: 0.417

Prompt: Respond only with composite z-score recorded for Cc1ccc(N2C(=O)c3ccccc3[C@](C)(C(=O)NCCCN(C)C)[C@@H]2c2ccc(CO)cc2)nc1
Completion: -0.0971

Prompt: Respond only with composite z-score recorded for O=C1C=C(c2ccccc2)C(=O)C2=C1CC([C@H]1Oc3ccccc3S(=O)(=O)N3CCC[C@@H]13)=CC2
Completion: -0.191

Prompt: Respond only with composite z-score recorded for COCCCNC(=O)[C@@H]1c2ccccc2C(=O)N(Cc2ccc(OC(F)(F)F)cc2)[C@H]1c1ccc(CO)cc1
Completion: 0.21

Prompt: Respond only with composite z-score recorded for COc1cc(CO)cc(I)c1O[C@H]1C=C(C(=O)NCCO)C[C@@H]2O[C@H]12
Completion: 0.298

Prompt: Respond only with composite z-score recorded for CN(C)CCCNC(=O)[C@@]1(Cc2ccccc2I)c2ccccc2C(=O)N(C2CCCCC2)[C@H]1c1ccc(CO)cc1
Completion: 1.13

Prompt: Respond only with composite z-score recorded for OCCCC1=CC(c2ccc(CN3CCCC3)cc2)N(Cc2cccc(OC(F)(F)F)c2)CC1 (centres undefined)
Completion: -0.0082

Prompt: Respond only with composite z-score recorded for COC(=O)[C@@]1(Cc2ccc(OC)cc2)[C@H]2c3cc(C(=O)N4CCCC4)n(Cc4c(CO)[nH]cc(C)c4=O)c3C[C@H]2CN1C(=O)c1ccccc1
Completion: 2.01

Prompt: Respond only with composite z-score recorded for O=C1C[C@@](C(=O)NCc2ccccc2)(c2ccc([N+](=O)[O-])cc2)[C@@H](c2ccc(CO)cc2)N1C1CCCCC1
Completion: -0.437
